Attribution: PubChem BioAssay AID624202

assay: qHTS Assay to Identify Small Molecule Activators of BRCA1 Expression; settings: MCF7-BRCA1-FFLuc reporter, luminescence, 48 h; series mostly up to 46.1 µM; further: nearly all actives have a fitted effect of over 80% in size
About 4,000 (1.1%) of roughly 380,000 compounds were called active. Roughly 3% stayed inconclusive and do not appear here. The call rests on the fitted dose curve; in most records, active means well fitted activation curve with a large enough effect; inconclusive means small, poorly fitted or top-dose-only effect; inactive means no such curve, though single readings can be large or run the other way. Only a selection was taken, and actives are over-represented in it overall.
Hi! Could you answer with just one of these? true (1) (active), false (0) (inactive)

Consider the following illustrative entries.
CC1CCN(CC(=O)c2c[nH]c3ccccc23)CC1: false (0)
COc1ccccc1CCNC(=O)c1cccn1-c1nnc(N2CCCCC2)s1: false (0)
CCc1ccc(CNC(=O)c2cc3cc4ccc(OC)cc4nc3o2)cc1: false (0)
N#Cc1ccc(C2N=C(c3ccccc3)NO2)cc1 (configuration not stated): true (1)
Cc1cc(NC(=O)CC(C)C)cc(-c2nc3ncccc3o2)c1O: false (0)

What classification did "Nc1ncnc2nnsc12" end up with in this test?
false (0)

Recorded test outcome, item CCC(C)c1ccc(NC(=O)COC(=O)C2CCCC2)cc1 (configuration not stated)
false (0)
